# protocol.notes: Quantitative highthroughput screen to assess conditional lethalithy of NOMO1 cells grown in Human Plasma-Like Medium with dialyzed fetal bovine serum (HPLM+ds) (AID 1963878); further: nearly all actives have a fitted effect of over 35% in size
# test.parameters: NOMO1 AML cells in HPLM+ds, CellTiter-Glo viability, 48 h; series mostly up to 45.8 µM
Inconclusive results are not listed. The source made the active and inactive calls. The call rests on the fitted dose curve; in most records, active means well fitted cell-killing curve with a large enough effect; inconclusive means small, poorly fitted or top-dose-only effect, or effect the other way; inactive means no such curve, though single readings can be large or run the other way.
Classes used: y = active, n = inactive

INSERT INTO results (molecule, category) VALUES
  ('N#Cc1ccc(COC[C@H]2O[C@@H](n3c(NCc4ccc(Cl)c(Cl)c4)nc4c(N)ncnc43)[C@@H](O)[C@@H]2O)cc1', 'y'),
  ('Fc1ccc(CNc2ncnc3ccc(F)cc23)cc1', 'n'),
  ('O=C(Nc1cc2cc[nH]c2cn1)c1ccccc1', 'y'),
  ('CNC[C@H](O)c1ccc(O)c(O)c1', 'n'),
  ('Cc1cccc(-c2nn(C(=S)Nc3ccccc3)cc2-c2ccnc3ccccc23)n1', 'n'),
  ('O=C(C=Cc1ccc(/C=C/C(=O)Nc2ccc(C3=NCCN3)cc2)cc1)Nc1ccc(C2=NCCN2)cc1', 'n'),
  ('O=c1[nH]nc(Sc2ncc([N+](=O)[O-])s2)n1-c1ccc2c(c1)OCCO2', 'y'),
  ('O=C(O)C1=CO[C@@H](O[C@@H]2O[C@H](CO)[C@H](O)[C@H](O)[C@H]2O)[C@@H]2C(CO)=CC[C@H]12', 'n'),
  ('CC1COc2c(N3CCN(C)CC3)c(F)cc3c(=O)c(C(=O)O)cn1c23 (stereo not drawn)', 'n'),
  ('Cn1cnc(=N)c2[nH]cnc21', 'y'),
  ('CN[C@@H]1C[C@H]2O[C@@](C)([C@H]1OC)n1c3ccccc3c3c4c(c5c6ccccc6n2c5c31)C(=O)N[C@H]4O', 'y'),
  ('C[C@@]1(c2cc(-c3cncnc3)c(F)cc2F)CCSC(N)=N1', 'y'),
  ('COc1cc2c(cc1OC)CC(=O)N(CCCN(C)C[C@H]1Cc3cc(OC)c(OC)cc31)CC2', 'n'),
  ('COc1cc2c(cc1OC)CN(CCc1ccc(NC(=O)c3cccc4c(=O)c5cccc(OC)c5[nH]c34)cc1)CC2', 'y'),
  ('COc1ccc2cc(-c3nc(-c4ccc(S(C)=O)cc4)[nH]c3-c3ccncc3)ccc2c1 (stereo not drawn)', 'n'),
  ('COc1cc2c(cc1OC)[C@@H]1C(=O)c3ccc4c(c3O[C@@H]1CO2)C=CC(C)(C)O4', 'y'),
  ('CC[C@H]1OC(=O)[C@H](C)C(=O)[C@H](C)[C@@H](O[C@H]2O[C@H](C)C[C@H](N(C)C)[C@@H]2O)[C@](C)(OC)C[C@@H](C)C(=O)[C@H](C)[C@H]2N(CCCCn3cnc(-c4cccnc4)c3)C(=O)O[C@]12C', 'n'),
  ('Cn1cc(C=CC(=O)c2cccc(F)c2)cc1C=CC(=O)NO', 'n');

----------
# protocol.notes: Quantitative highthroughput screen to assess conditional lethalithy of SEM cells grown in Human Plasma-Like Medium with dialyzed fetal bovine serum (HPLM+ds) (AID 1963882); further: nearly all actives have a fitted effect of over 35% in size; further: potency means the concentration at half of the fitted maximal effect
# test.parameters: SEM B-ALL cells in HPLM+ds, CellTiter-Glo viability, 48 h; series mostly up to 45.8 µM
# Procedure: Assay Provider: Jason Cantor Ph.D. Department of Biochemistry University of Wisconsin-Madison, Madison, WI, USA Chemical screening studies have identified drug sensitivities across hundreds of cancer cell lines but most putative therapeutics fail to translate. […] Sets of conditional anticancer compounds spanned phases of clinical development and included non-oncology drugs were assessed. […] 6; Detection; Luminescence, Viewlux PerkinElmer. […]
Records with an inconclusive call do not appear. Calls of active or inactive are those of the source. The call rests on the fitted dose curve; in most records, active means well fitted cell-killing curve with a large enough effect; inconclusive means small, poorly fitted or top-dose-only effect, or effect the other way; inactive means no such curve, though single readings can be large or run the other way.
readout: Potency

INSERT INTO measurements (compound, readout, meas_value) VALUES
  ('CN(C)C1CCN(C(=O)c2ccc(NC(=O)Nc3nc(N4CCOCC4)nc(N4CCOCC4)n3)cc2)CC1', 'Potency', '0.0743 µM (active)'),
  ('CC(=O)O[C@]1(C(C)=O)CC[C@H]2[C@@H]3C=C(C)C4=CC(=O)CC[C@]4(C)[C@@H]3CC[C@@]21C', 'Potency', 'inactive'),
  ('O=[N+]([O-])c1cn2c(n1)OC[C@@H](OCc1ccc(OC(F)(F)F)cc1)C2', 'Potency', 'inactive'),
  ('COc1cc2nccc(Oc3ccc(NC(=O)Nc4ccc(F)cc4F)c(F)c3)c2cc1OC', 'Potency', '0.0105 µM (active)'),
  ('Cc1cc(NC(=O)Nc2ccc(N(C)C)cc2)c2cc(F)cc(F)c2n1', 'Potency', 'inactive'),
  ('O=C(CCCN1CCN(c2ccc(F)cc2)CC1)NC1c2ccccc2CSc2ccccc21 (stereo unspecified)', 'Potency', 'inactive'),
  ('Cc1cn([C@@H]2O[C@H](CO)[C@@H](O)[C@H]2F)c(=O)[nH]c1=O', 'Potency', 'inactive'),
  ('COc1cc(C=CC(=O)CC(=O)C=Cc2ccc(O)c(OC)c2)ccc1O', 'Potency', '19.1 µM (active)'),
  ('N#CNC(=NCCCCCCOc1ccc(Cl)cc1)Nc1ccncc1', 'Potency', 'inactive'),
  ('NC(N)=Nc1nc(CSCCC(N)=NS(N)(=O)=O)cs1', 'Potency', 'inactive'),
  ('CC1COc2c(N3CCN(C)CC3)c(F)cc3c(=O)c(C(=O)O)cn1c23 (stereo unspecified)', 'Potency', 'inactive'),
  ('O=C(O)C1(Cc2cccc(Nc3nccs3)n2)CCC(Oc2cccc(Cl)c2F)CC1 (stereo unspecified)', 'Potency', '2.96 µM (active)'),
  ('Nc1nc2ccc(OC(F)(F)F)cc2s1', 'Potency', 'inactive'),
  ('O=C(/C=C\n1cnc(-c2cc(C(F)(F)F)cc(C(F)(F)F)c2)n1)NNc1cnccn1', 'Potency', '0.741 µM (active)'),
  ('CCCCn1c(=O)n(Cc2ccccc2F)c(=O)c2[nH]c(Cc3ccc(NC(C)=O)cc3)nc21', 'Potency', 'inactive'),
  ('C=CCNc1c(O)cc2c(O)c1C[C@@H](C)C[C@H](OC)[C@@H](O)[C@@H](C)C=C(C)[C@H](OC(N)=O)[C@@H](OC)C=CC=C(C)C(=O)N2', 'Potency', '1.66 µM (active)'),
  ('C[C@H]1[C@H](O)O[C@@H]2O[C@@]3(C)CC[C@@H]4[C@H](C)CC[C@@H]1[C@@]24OO3', 'Potency', '4.18 µM (active)'),
  ('NC1(Cc2ccc(Cl)cc2)CCN(c2ncnc3[nH]ccc23)CC1', 'Potency', '6.62 µM (active)'),
  ('C=C(c1ccc(C(=O)O)cc1)c1cc2c(cc1C)C(C)(C)CCC2(C)C', 'Potency', 'inactive'),
  ('CNc1nc(-c2ccc3c(N)n[nH]c3c2)cc(N2C[C@@H](C(=O)NC3CCCCC3)CC[C@@H]2C)n1', 'Potency', '16.6 µM (active)'),
  ('C[C@]12CCC3=C4CCC(=O)C=C4CC[C@@H]3[C@H]1CC[C@@]2(O)CC#N', 'Potency', 'inactive'),
  ('Cc1noc(-c2ccc(CSCCC(=O)O)cc2)c1NC(=O)OC(C)c1ccccc1Cl (stereo unspecified)', 'Potency', 'inactive'),
  ('Cc1cc(Nc2nc(N[C@@H](C)c3ncc(F)cn3)ncc2Cl)n[nH]1', 'Potency', '5.26 µM (active)'),
  ('COc1cc2ncnc(-n3nc(-c4ccccn4)nc3N)c2cc1OC', 'Potency', '5.26 µM (active)'),
  ('CN1[C@@H]2CCC[C@@H]1CC(NC(=O)c1nn(C)c3ccccc13)C2 (stereo partly specified)', 'Potency', 'inactive'),
  ('FC(F)(F)c1ccc(Nc2nc3ccc(Oc4ccnc(-c5ncc(C(F)(F)F)[nH]5)c4)cc3[nH]2)cc1', 'Potency', '18.7 µM (active)'),
  ('Cc1ccc(C(=O)Nc2cccc(C(F)(F)F)c2)cc1-c1ccc2nc(NCCN3CCOCC3)ncc2c1', 'Potency', '4.69 µM (active)'),
  ('O=c1ccn([C@@H]2O[C@H](CO)[C@H](O)[C@H]2O)c(=O)[nH]1', 'Potency', 'inactive'),
  ('C=CC(=O)Nc1cc2c(Nc3ccc(F)c(Cl)c3)ncnc2cc1C#CC(C)(C)N1CCN(C)CC1', 'Potency', '2.96 µM (active)'),
  ('CC(C)c1nc(CN(C)C(=O)N[C@H](C(=O)N[C@@H](Cc2ccccc2)C[C@H](O)[C@H](Cc2ccccc2)NC(=O)OCc2cncs2)C(C)C)cs1', 'Potency', 'inactive'),
  ('CCOC(=O)C1=C[C@]2(CC)CCCN3CCc4c(n1c1ccccc41)[C@@H]32', 'Potency', 'inactive'),
  ('Cc1coc2c1C(=O)C(=O)c1c-2ccc2c(C)cccc12', 'Potency', 'inactive'),
  ('O=C(O)c1cc(=O)c2c(OCC(O)COc3cccc4oc(C(=O)O)cc(=O)c34)cccc2o1', 'Potency', 'inactive'),
  ('COc1ccc(S(=O)(=O)Nc2cc(-c3c(O)ccc4ccccc34)c(O)c3ccccc23)cc1', 'Potency', '14.8 µM (active)'),
  ('CC(C=CC1=C(C)CCCC1(C)C)=CC=CC(C)=CC(=O)Nc1ccc(O)cc1', 'Potency', '3.4 µM (active)'),
  ('C[C@@H]1O[C@@H](O[C@H]2CC[C@@]3(C)[C@H](CC[C@@H]4[C@H]3C[C@@H](O)[C@]3(C)[C@@H](C5=CC(=O)OC5)CC[C@]43O)C2)C[C@H](O)[C@@H]1O[C@H]1C[C@H](O)[C@H](O[C@H]2C[C@H](O)[C@@H](O)[C@@H](C)O2)[C@H](C)O1 (stereo in doubt)', 'Potency', '0.0959 µM (active)');
